# assayed.target: UniProtKB P08172
# Sequence (P08172 whole entry): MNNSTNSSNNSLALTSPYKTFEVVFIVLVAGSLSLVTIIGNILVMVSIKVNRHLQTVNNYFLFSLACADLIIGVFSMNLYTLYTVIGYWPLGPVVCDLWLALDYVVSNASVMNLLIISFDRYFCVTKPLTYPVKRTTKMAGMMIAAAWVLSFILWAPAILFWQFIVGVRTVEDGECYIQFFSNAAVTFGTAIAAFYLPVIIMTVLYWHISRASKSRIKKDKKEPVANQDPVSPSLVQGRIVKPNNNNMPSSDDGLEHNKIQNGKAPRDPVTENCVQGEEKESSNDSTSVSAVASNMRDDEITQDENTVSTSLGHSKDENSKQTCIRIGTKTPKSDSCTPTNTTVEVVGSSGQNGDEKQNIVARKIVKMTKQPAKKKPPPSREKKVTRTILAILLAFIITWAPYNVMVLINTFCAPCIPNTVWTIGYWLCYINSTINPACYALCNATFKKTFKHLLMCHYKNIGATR
endpoint.label: pKi
Here pKi is given on a logarithmic scale as minus log10 of the concentration in mol/L.

So what does the record say about pKi for CC(c1ccc(S(=O)(=O)c2ccccc2)cc1)N1CCN(C)CC1 (configuration not stated) ?
7.47

Also COc1ccc([S@@+]([O-])c2ccc(C(C#N)N3CCN(C4CCCCC4)CC3)cc2)cc1 (stereo in doubt; 1) , if possible.
8.57

Also CC(c1ccc(S(=O)(=O)c2ccccc2)cc1)N1CCN(C2CCCCC2)CC1 (configuration not stated) , if possible.
9.70

Also CC(c1ccc(S(=O)(=O)c2ccccc2)cc1)N1CCNCC1 (configuration not stated) , if possible.
7.43

Also COc1ccc([S+]([O-])c2ccc(C(C#N)N3CCN(C4CCCCC4)CC3)cc2)cc1 (configuration not stated) , if possible.
8.10

Also COc1ccc(S(=O)(=O)c2ccc(C(C)N3CCN(C4CCCCC4)CC3)cc2)cc1 (configuration not stated) , if possible.
9.22

Also CC(c1ccc(S(=O)(=O)c2ccccc2)cc1)N1CCN(c2ccccc2)CC1 (configuration not stated) , if possible.
5.34

###

// endpoint log10 of Ki / system Muscarinic acetylcholine receptor M1 (Homo sapiens, UniProt P11229)
A difference of one corresponds to tenfold Ki; all values are log10 with Ki in nM.

So what does the record say about log10 of Ki for CC(c1ccc(S(=O)(=O)c2ccccc2)cc1)N1CCNCC1 (stereo unspecified) ?
1.76

Also COc1ccc([S+]([O-])c2ccc(C(C(N)=O)N3CCN(C4CCCCC4)CC3)cc2)cc1 (stereo unspecified) , if possible.
2.38

Also CC(c1ccc(S(=O)(=O)c2ccc(S(C)(=O)=O)cc2)cc1)N1CCN(C2CCCCC2)CC1 (stereo unspecified) , if possible.
2.03

Also COc1ccc([S+]([O-])c2ccc(C(C#N)N3CCN(C4CCCCC4)CC3)cc2)cc1 (stereo unspecified) , if possible.
2.07

Also CC(c1ccc(S(=O)(=O)c2ccccc2)cc1)N1CCN(C)CC1 (stereo unspecified) , if possible.
1.98

Also CC(c1ccc(S(=O)(=O)c2ccccc2)cc1)N1CCN(c2ccccc2)CC1 (stereo unspecified) , if possible.
3.68

###

Answer each item with its documented Ratio.
# assayed.target: Muscarinic acetylcholine receptors; M1 & M2 (Homo sapiens) (UniProt P11229+P08172)
# assay.overview: Ratio of binding affinity to M1 receptor compared to that of M2 receptor
# Type: protein assay
Reply with the value as a number alone.

So what does the record say about Ratio for COc1ccc([S+]([O-])c2ccc(C(C)N3CCN(C4CCCCC4)CC3)cc2)cc1 (stereo not given) ?
6

Also CC(c1ccc(S(=O)(=O)c2ccc(S(C)(=O)=O)cc2)cc1)N1CCN(C2CCCCC2)CC1 (stereo not given) , if possible.
3

Also COc1ccc([S@@+]([O-])c2ccc(C(C#N)N3CCN(C4CCCCC4)CC3)cc2)cc1 (single isomer, unassigned; form 1) , if possible.
15

Also COc1ccc(S(=O)(=O)c2ccc(C(C)N3CCN(C4CCCCC4)CC3)cc2)cc1 (stereo not given) , if possible.
10

Also COc1ccc([S+]([O-])c2ccc(C(C(N)=O)N3CCN(C4CCCCC4)CC3)cc2)cc1 (stereo not given) , if possible.
6

###

# assayed.target: Muscarinic acetylcholine receptors; M1 & M2 (Homo sapiens) (UniProt P11229+P08172)
# assay.overview: Ratio of binding affinity to M1 receptor compared to that of M2 receptor
# Type: protein assay
Answer each item with its documented Ratio.
Reply with the value as a number alone.

Write down the reported Ratio of CCOC(=O)N1CCN(C(C)c2ccc(S(=O)(=O)c3ccccc3)cc2)CC1 (centres undefined) , test system: Muscarinic acetylcholine receptors; M1 & M2 (Homo sapiens) (UniProt P11229+P08172).
1.5

Also CC(c1ccc(S(=O)(=O)c2ccccc2)cc1)N1CCNCC1 (centres undefined) , if possible.
1.6

Also COc1ccc([S+]([O-])c2ccc(C(C#N)N3CCN(C4CCCCC4)CC3)cc2)cc1 (centres undefined) , if possible.
14

Also CC(c1ccc(S(=O)(=O)c2ccccc2)cc1)N1CCN(C2CCCCC2)CC1 (centres undefined) , if possible.
6

Also CC(c1ccc(S(=O)(=O)c2ccccc2)cc1)N1CCN(c2ccccc2)CC1 (centres undefined) , if possible.
1

Also Cc1ccc(S(=O)(=O)c2ccc(C(C)N3CCN(C4CCCCC4)CC3)cc2)cc1 (centres undefined) , if possible.
14

Also CC(c1ccc(S(=O)(=O)c2ccccc2)cc1)N1CCN(CCO)CC1 (centres undefined) , if possible.
3

Also COc1ccc([S@@+]([O-])c2ccc(C(C#N)N3CCN(C4CCCCC4)CC3)cc2)cc1 (stereo in doubt; 1) , if possible.
40

Also COc1ccc([S+]([O-])c2ccc(C(C3CCCCC3)N3CCN(C4CCCCC4)CC3)cc2)cc1 (centres undefined) , if possible.
3

###

# assayed.target: Muscarinic acetylcholine receptors; M1 & M2 (Homo sapiens) (UniProt P11229+P08172)
# assay.overview: Ratio of binding affinity to M1 receptor compared to that of M2 receptor
# Assay type: protein assay
Answer each item with its documented Ratio.

So what does the record say about Ratio for COc1ccc([S+]([O-])c2ccc(C(N3CCN(C4CCCCC4)CC3)C(F)(F)F)cc2)cc1 (stereo not drawn) ?
5

Also CC(c1ccc(S(=O)(=O)c2ccc(C(C)(C)C)cc2)cc1)N1CCN(C2CCCCC2)CC1 (stereo not drawn) , if possible.
2.6

Also CC(c1ccc(S(=O)(=O)c2ccccc2)cc1)N1CCN(C)CC1 (stereo not drawn) , if possible.
3

Cited source for all entries: ChEMBL document CHEMBL1132769
